Data credit: PubChem BioAssay (NCATS)

Assay: Validation qHTS assay for inhibitors of Activation Induced Cytidine Deaminase (AID): UDG Counterscreen signal (AID 1347427); further: 0% is about no effect
Settings: biochemical UDG counterscreen, fluorescence signal; series mostly up to 115 µM
From the text: Assay Provider (PI) Patricia Gearhart Ph.D. National Institute on Aging National Institute of Health (NIH), Bethesda, MD Assay Provider (PI) Rahul Kohli Ph.D. Perelman School of Medicine University of Pennsylvania, Philadelphia, PA […] A FRET based analysis of cytosine deamination, was developed to identify potential inhibitors of AID catalytic activity. This screen has two signal output, Read 1 evaluates the AID inhibition response. […]
Active and inactive are the calls of the source. The call rests on the fitted dose curve; in most records, active means well fitted curve in the direction sought with a large enough effect; inconclusive means small, poorly fitted or top-dose-only effect, or another doubt; inactive means no such curve, though single readings can be large or run the other way.
Please state which outcome applies, choosing from 1 = active, -1 = inactive

CP(=O)(O)C1=CCNCC1 = -1

Ask: What is the recorded call for this compound in the test? CC(N)c1cccc(Cl)c1Cl (stereo not given)
Reply: -1

Ask: What is the recorded call for this compound in the test? C[C@H](N)Cc1cccc(C(F)(F)F)c1
Reply: -1

Ask: What is the recorded call for this compound in the test? C[N+]1(C)CCOC(O)(c2ccc(-c3ccc(C4(O)C[N+](C)(C)CCO4)cc3)cc2)C1 (stereo not given)
Reply: -1

Ask: What is the recorded call for this compound in the test? CCOC(=O)c1ncn2c1[C@@H]1CCCN1C(=O)c1cc(OC)ccc1-2
Reply: -1

Ask: What is the recorded call for this compound in the test? CN(N=O)c1cc(O)ccc1O
Reply: -1
